Biological target: GluN2B glutamate receptors (Homo sapiens (Human), UniProt Q05586+Q13224)
Sequence (Q13224 27-1484, other chains not shown): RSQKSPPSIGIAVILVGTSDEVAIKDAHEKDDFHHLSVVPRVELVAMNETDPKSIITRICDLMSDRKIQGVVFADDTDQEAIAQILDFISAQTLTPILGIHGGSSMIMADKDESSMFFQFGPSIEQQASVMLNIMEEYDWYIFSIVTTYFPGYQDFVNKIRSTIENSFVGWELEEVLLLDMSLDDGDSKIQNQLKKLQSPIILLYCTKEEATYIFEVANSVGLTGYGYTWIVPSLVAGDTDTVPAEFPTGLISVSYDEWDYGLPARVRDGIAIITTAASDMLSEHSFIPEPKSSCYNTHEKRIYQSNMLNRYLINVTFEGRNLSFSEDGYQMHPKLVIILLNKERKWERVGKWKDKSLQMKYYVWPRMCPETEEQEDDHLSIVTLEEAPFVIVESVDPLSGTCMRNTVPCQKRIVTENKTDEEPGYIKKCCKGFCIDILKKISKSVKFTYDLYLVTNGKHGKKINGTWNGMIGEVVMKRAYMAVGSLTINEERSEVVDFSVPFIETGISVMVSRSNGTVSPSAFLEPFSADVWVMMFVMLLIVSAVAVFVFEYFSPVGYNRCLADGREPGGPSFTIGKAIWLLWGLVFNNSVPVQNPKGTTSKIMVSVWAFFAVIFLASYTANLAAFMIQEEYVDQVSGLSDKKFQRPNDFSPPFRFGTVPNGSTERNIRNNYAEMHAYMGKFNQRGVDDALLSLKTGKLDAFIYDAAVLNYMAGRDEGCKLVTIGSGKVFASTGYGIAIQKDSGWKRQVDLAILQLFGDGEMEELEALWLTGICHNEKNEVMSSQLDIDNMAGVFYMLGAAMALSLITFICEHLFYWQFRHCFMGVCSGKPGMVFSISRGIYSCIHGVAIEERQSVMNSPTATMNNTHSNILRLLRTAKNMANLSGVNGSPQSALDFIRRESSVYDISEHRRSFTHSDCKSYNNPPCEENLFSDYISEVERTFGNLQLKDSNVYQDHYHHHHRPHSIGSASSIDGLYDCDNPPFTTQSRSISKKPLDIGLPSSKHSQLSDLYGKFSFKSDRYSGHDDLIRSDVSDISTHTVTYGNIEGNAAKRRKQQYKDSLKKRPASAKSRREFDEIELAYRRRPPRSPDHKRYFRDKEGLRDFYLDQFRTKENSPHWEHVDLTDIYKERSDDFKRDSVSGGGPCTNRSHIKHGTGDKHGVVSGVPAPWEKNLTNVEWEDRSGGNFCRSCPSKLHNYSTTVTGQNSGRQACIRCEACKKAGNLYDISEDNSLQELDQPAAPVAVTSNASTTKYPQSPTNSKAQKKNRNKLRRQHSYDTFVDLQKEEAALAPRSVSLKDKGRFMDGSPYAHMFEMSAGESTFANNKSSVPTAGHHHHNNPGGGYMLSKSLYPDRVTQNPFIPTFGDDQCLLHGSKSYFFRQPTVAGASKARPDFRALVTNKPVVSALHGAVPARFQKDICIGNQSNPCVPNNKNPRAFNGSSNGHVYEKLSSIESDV
Test: Whole-cell patch clamp of mammalian cells (Ionworks Barracuda), positive allosteric modulation, GluN2B
Assay type: cell-based
Details: co-application with EC20 L-glutamate and 30 μM glycine; 8-point concentration-response; read-out: Avg EC50 2B
# strict inequality: EC50 < 400 nM yields Y, everything else yields N

MOLECULE: CC[C@]1(O)CC[C@H]2C(=CC[C@@H]3[C@@H]2CC[C@]2(C)[C@@H]([C@H](C)CCCC4(O)CCOCC4)CC[C@@H]32)C1 [Compound 10216]
GROUP: N
--
MOLECULE: C[C@H](CCCC1(O)CCC(F)(F)CC1)[C@H]1CC[C@H]2[C@@H]3CC[C@H]4C[C@](O)(C(F)(F)F)CC[C@]4(C)[C@H]3CC[C@]12C [Compound 11786]
GROUP: N
--
MOLECULE: CC[C@]1(O)CC[C@H]2[C@@H](CC[C@@H]3[C@@H]2CC[C@]2(C)[C@@H]([C@H](C)CC[C@@H](O)C(C)C)CC[C@@H]32)C1 [Compound 4B77]
GROUP: Y
--
MOLECULE: CC[C@]1(O)CC[C@H]2C(=CC[C@@H]3[C@@H]2CC[C@]2(C)[C@@H]([C@H](C)CCCC(O)C(C)(C)C)CC[C@@H]32)C1 (some centres unmarked) [Compound 10012]
GROUP: N

Determine if CC[C@]1(O)CC[C@H]2[C@@H](CC[C@@H]3[C@@H]2CC[C@]2(C)[C@@H]([C@H](C)CCCC4(O)CCC(F)(F)CC4)CC[C@@H]32)C1 [Compound 9813] shows EC50 strictly lower than 400 nM. Y

###

Target: GlunN1/GluN2A glutamate receptors (Homo sapiens (Human), UniProt Q05586+Q12879)
Sequence (Q12879 23-1464, other chains not shown): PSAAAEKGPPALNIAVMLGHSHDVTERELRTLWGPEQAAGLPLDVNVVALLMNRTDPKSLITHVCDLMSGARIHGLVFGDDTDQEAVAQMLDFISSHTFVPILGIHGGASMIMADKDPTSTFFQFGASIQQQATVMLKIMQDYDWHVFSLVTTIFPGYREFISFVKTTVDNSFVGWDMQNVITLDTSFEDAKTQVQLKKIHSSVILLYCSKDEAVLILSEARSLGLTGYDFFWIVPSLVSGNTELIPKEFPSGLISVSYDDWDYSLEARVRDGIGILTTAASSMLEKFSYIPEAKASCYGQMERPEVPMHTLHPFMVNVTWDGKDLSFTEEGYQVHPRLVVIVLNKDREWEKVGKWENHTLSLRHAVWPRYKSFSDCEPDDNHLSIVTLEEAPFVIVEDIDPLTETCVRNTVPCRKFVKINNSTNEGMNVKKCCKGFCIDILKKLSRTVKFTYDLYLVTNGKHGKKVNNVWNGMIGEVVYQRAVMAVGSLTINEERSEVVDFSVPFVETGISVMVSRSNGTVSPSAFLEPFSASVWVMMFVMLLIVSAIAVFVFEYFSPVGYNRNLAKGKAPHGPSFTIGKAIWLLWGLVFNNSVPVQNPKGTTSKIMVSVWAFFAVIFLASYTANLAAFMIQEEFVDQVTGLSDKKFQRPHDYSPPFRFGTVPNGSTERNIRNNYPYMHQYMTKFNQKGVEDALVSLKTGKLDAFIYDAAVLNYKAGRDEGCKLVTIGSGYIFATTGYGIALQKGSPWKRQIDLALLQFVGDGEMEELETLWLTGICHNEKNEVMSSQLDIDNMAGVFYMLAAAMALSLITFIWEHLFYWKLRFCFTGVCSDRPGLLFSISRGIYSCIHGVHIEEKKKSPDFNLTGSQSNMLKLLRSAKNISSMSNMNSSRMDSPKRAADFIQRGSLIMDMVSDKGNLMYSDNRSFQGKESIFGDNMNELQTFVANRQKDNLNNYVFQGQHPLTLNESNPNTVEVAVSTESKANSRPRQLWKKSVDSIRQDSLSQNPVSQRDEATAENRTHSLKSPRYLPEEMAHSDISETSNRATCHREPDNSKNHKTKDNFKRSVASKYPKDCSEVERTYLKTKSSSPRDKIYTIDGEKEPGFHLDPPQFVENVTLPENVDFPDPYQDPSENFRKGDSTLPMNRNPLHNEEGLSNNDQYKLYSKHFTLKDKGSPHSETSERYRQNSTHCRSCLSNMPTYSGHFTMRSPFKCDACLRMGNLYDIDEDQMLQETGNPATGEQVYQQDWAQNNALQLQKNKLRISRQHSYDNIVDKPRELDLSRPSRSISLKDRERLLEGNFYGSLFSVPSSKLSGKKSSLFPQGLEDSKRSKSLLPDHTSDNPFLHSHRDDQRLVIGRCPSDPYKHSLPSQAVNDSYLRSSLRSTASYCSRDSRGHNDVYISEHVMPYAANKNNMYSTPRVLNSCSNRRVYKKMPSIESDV
Test: Whole-cell patch clamp of mammalian cells (Ionworks Barracuda), positive allosteric modulation, GluN1/GluN2A
Assay type: cell-based
Details: HEK293 cells; co-application with EC20 L-glutamate and 30 μM glycine; 8-point concentration-response; read-out: Avg EC50 2A
Quick list: EC50 per entry.
Write the value in nM as a bare number.

Some molecules with recorded EC50:
MOLECULE: CC[C@]1(O)CC[C@H]2C(=CC[C@@H]3[C@@H]2CC[C@]2(C)[C@@H]([C@H](C)CCCC(C)(C)O)CC[C@@H]32)C1
ASSAY RESULT: 200

MOLECULE: CC[C@]1(O)CC[C@H]2C(=CC[C@@H]3[C@@H]2CC[C@]2(C)[C@@H]([C@H](C)CCC(C)(C)O)CC[C@@H]32)C1
ASSAY RESULT: 341

MOLECULE: C[C@H](CCC(O)c1cccnc1)[C@H]1CC[C@H]2[C@@H]3CC=C4C[C@@](C)(O)CC[C@]4(C)[C@H]3CC[C@]12C (some centres unmarked)
ASSAY RESULT: 646

Report EC50 for C[C@H](CCC(C)(C)O)[C@H]1CC[C@H]2[C@@H]3CC=C4C[C@](O)(C(F)(F)F)CC[C@]4(C)[C@H]3CC[C@]12C tested on GlunN1/GluN2A glutamate receptors (Homo sapiens (Human), UniProt Q05586+Q12879). 295

Input CC[C@]1(O)CC[C@H]2C(=CC[C@@H]3[C@@H]2CC[C@]2(C)[C@@H]([C@H](C)CCCC4(O)CCC(F)(F)CC4)CC[C@@H]32)C1 124

Then what about the molecule CC[C@]1(O)CC[C@H]2C(=CC[C@@H]3[C@@H]2CC[C@]2(C)[C@@H]([C@H](C)CCCC4(O)CC4)CC[C@@H]32)C1 ? 204

Try CC[C@]1(O)CC[C@@]2(C)C(=CC[C@H]3[C@@H]4CC[C@H]([C@H](C)CC[C@H](O)c5cccc(C#N)c5)[C@@]4(C)CC[C@@H]32)C1 next. 358

CC[C@]1(O)CC[C@H]2[C@@H](CC[C@@H]3[C@@H]2CC[C@]2(C)[C@@H]([C@H](C)CC[C@@H](O)C(C)C)CC[C@@H]32)C1 , same question. 467

Same question for C[C@H](CCC[C@@H](O)C(F)(F)F)[C@H]1CC[C@H]2[C@@H]3CC[C@H]4C[C@](O)(C(F)(F)F)CC[C@]4(C)[C@H]3CC[C@]12C please. 382

Check CC[C@]1(O)CC[C@H]2[C@@H](CC[C@@H]3[C@@H]2CC[C@]2(C)[C@@H]([C@H](C)CC[C@H](O)C(C)C)CC[C@@H]32)C1 too. 427

###

Molecular target: GluN2B glutamate receptors (Homo sapiens (Human), UniProt Q05586+Q13224)
Experiment: Whole-cell patch clamp of mammalian cells (Ionworks Barracuda), positive allosteric modulation, GluN2B
Type: cell-based
Conditions: % potentiation of current elicited with EC20 L-glutamate and 30 μM glycine; read-out: Avg Emax 2B (%)
Procedure: The measurements were performed using Ion Works Barracuda platform following this procedure: Electrophysiological Procedures: • a) Intracellular solution (mM): 50 mM CsCl, 90 mM CsF, 2 mM MgCl2, 5 mM EGTA, 10 mM HEPES. Adjust to pH 7.2 with CsOH. • b) Extracellular solution, HB-PS (composition in mM): NaCl, 137; KCl, 1.0; CaCl2), 5; HEPES, 10; Glucose, 10; pH adjusted to 7.4 with NaOH (refrigerated until use). • c) Holding potential: −70 mV, potential during agonist/PAM application: −40 mV. […]
# reported Emax; entries follow
Give just the number in %; leave the unit off.

COMPOUND: CC[C@]1(O)CC[C@@]2(C)C(=CC[C@H]3[C@@H]4CC[C@H]([C@H](C)CC[C@H](O)c5ccccn5)[C@@]4(C)CC[C@@H]32)C1 [Compound 6347]
UNITS: %
Emax: 132

COMPOUND: C[C@H](CC[C@H](O)C1CCOCC1)[C@H]1CC[C@H]2[C@@H]3CC[C@H]4C[C@](O)(C(F)(F)F)CC[C@]4(C)[C@H]3CC[C@]12C [Compound 2080]
UNITS: %
Emax: 147

COMPOUND: CO[C@H]1CC[C@](O)(CC[C@@H](C)[C@H]2CC[C@H]3[C@@H]4CC[C@H]5C[C@](O)(C(F)(F)F)CC[C@]5(C)[C@H]4CC[C@]23C)CC1 [Compound 4585]
UNITS: %
Emax: 123

COMPOUND: CC[C@]1(O)CC[C@@]2(C)C(=CC[C@H]3[C@@H]4CC[C@H]([C@H](C)CCC(O)c5ccccc5)[C@@]4(C)CC[C@@H]32)C1 (some centres unmarked) [Compound 761]
UNITS: %
Emax: 197

Name the reported Emax value associated with the compound C[C@H](CCC1(O)CCC(C(C)(C)C)CC1)[C@H]1CC[C@H]2[C@@H]3CC[C@H]4C[C@](O)(C(F)(F)F)CC[C@]4(C)[C@H]3CC[C@]12C (some centres unmarked) [Compound 4360] 14.6

###

Biological target: GluN2B glutamate receptors (Homo sapiens (Human), UniProt Q05586+Q13224)
Experiment: Whole-cell patch clamp of mammalian cells (Ionworks Barracuda), positive allosteric modulation, GluN2B
Format: cell-based
Details: read-out: Avg Emax 2B (%)
VALUE TYPE: Emax (%)
Write the value in % as a bare number.

Reference set (2 entries):
MOLECULE: C[C@H](CCC(C)(O)c1ccccc1)[C@H]1CC[C@H]2[C@@H]3CC=C4C[C@@](C)(O)CC[C@]4(C)[C@H]3CC[C@]12C (stereo partly shown)
VALUE TYPE: Emax
ASSAY RESULT: 74.8

MOLECULE: CC(C)[C@H](O)CCC[C@@H](C)[C@H]1CC[C@H]2[C@@H]3CC[C@H]4C[C@](O)(C(F)(F)F)CC[C@]4(C)[C@H]3CC[C@]12C
VALUE TYPE: Emax
ASSAY RESULT: 114

Consider the molecule CC[C@]1(O)CC[C@H]2C(=CC[C@@H]3[C@@H]2CC[C@]2(C)[C@@H]([C@H](C)CC[C@H](O)C(C)(C)C)CC[C@@H]32)C1 and give its measured Emax. 259

Queued: CC[C@]1(O)CC[C@@]2(C)C(=CC[C@H]3[C@@H]4CC[C@H]([C@H](C)CC[C@@H](O)c5ccc(F)cc5)[C@@]4(C)CC[C@@H]32)C1 242

###

Molecular target: GlunN1/GluN2A glutamate receptors (Homo sapiens (Human), UniProt Q05586+Q12879)
Assay: Whole-cell patch clamp of mammalian cells (Ionworks Barracuda), positive allosteric modulation, GluN1/GluN2A
Type: cell-based
pEC50: recorded values
In plain terms, pEC50 is the concentration in mol/L turned into minus its base-10 logarithm.

MOLECULE: C[C@H](CCC(O)c1ccccc1)[C@H]1CC[C@H]2[C@@H]3CC=C4C[C@@](C)(O)CC[C@]4(C)[C@H]3CC[C@]12C (stereo partly drawn)
ASSAYED SYSTEM: GlunN1/GluN2A glutamate receptors (Homo sapiens (Human), UniProt Q05586+Q12879)
VALUE TYPE: pEC50
ASSAY RESULT: 6.38
--
MOLECULE: C[C@H](CCC1(O)CCOC1)[C@H]1CC[C@H]2[C@@H]3CC[C@H]4C[C@](O)(C(F)(F)F)CC[C@]4(C)[C@H]3CC[C@]12C (stereo partly drawn)
ASSAYED SYSTEM: GlunN1/GluN2A glutamate receptors (Homo sapiens (Human), UniProt Q05586+Q12879)
VALUE TYPE: pEC50
ASSAY RESULT: 6.77

I am curious: what pEC50 value has been reported for CC[C@]1(O)CC[C@H]2C(=CC[C@@H]3[C@@H]2CC[C@]2(C)[C@@H]([C@H](C)CC[C@@]4(O)CCOC4)CC[C@@H]32)C1 (single isomer, unassigned) ? 5.98
